test system: BT-549 breast; experiment: NCI-60 one-dose screen, 48 h (100 = growth as untreated, 0 = no growth, -100 = all killed); conditions: 10 µM unless noted
Compounds without any hit were thinned out: in the full panel of roughly 83,000, 20% have a hit.
RESULT_TYPE: growth (%)
Please respond with the number in % and leave the unit unwritten.

Examples with answers:
[[record]]
compound_smiles = "C=C1C(=O)O[C@H]2[C@H]1CC/C(COC(=O)C(=O)c1c[nH]c3ccc(Cl)cc13)=C\\CC[C@@]1(C)O[C@@H]21"
numeric_value = -87.2

[[record]]
compound_smiles = "O=S(=O)(Nc1cc(F)cc(F)c1)c1ccc(-c2cnc(C3CC3)o2)cc1"
numeric_value = 36.1

[[record]]
compound_smiles = "Cc1ccc(O)c(NC(=O)c2cccc(Nc3ccnc(C(F)(F)F)c3)c2)c1"
numeric_value = 57.9


Task item: // output growth; input `Cc1nc([P+](c2ccccc2)(c2ccccc2)c2ccccc2)c(N2CCCCC2)o1` ; system BT-549 breast
Reply: 20

Ref: PubChem BioAssay (NCI)
